- EXPERIMENTAL_PROTOCOL: MultiTox-Fluor Cytotoxicity Assay - LYMP1-002 - Live Cells (AID 955);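 note: cells exposed to compound for 16 hours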
- EXPERIMENTAL_CONTEXT: LYMP1-002 lymphoblastoid live-cell protease fluorescence viability; series mostly up to 46.1 µM
Records with an inconclusive call do not appear. Calls of active or inactive are those of the source. Calls come from the whole dose curve; as a rule, active = well fitted cell-killing curve with a large enough effect; inconclusive = small, poorly fitted or top-dose-only effect, or effect the other way; inactive = flat fitted curve, though single readings scatter.
Pick one: 1 = active, -1 = inactive

Could you please tell me the result logged for `COc1cccc2c1C(=O)c1c(O)c3c(c(O)c1C2=O)C[C@@](O)(C(=O)CO)C[C@@H]3O[C@H]1C[C@H](N)[C@H](O)[C@H](C)O1` in this assay?
1

Give the logged outcome of this assay for the following compound: `C=CCc1ccc(O)c(OC)c1`
-1

Would you mind telling me which call this test gave `CC/C(=C(/CC)c1ccc(O)cc1)c1ccc(O)cc1` ?
-1

Can you look up the reported call for `CN(C)/N=N/c1nc[nH]c1C(N)=O` for me?
-1

Dear all, I need the recorded test outcome for `COC1=CC(=O)C[C@@H](C)[C@]12Oc1c(Cl)c(OC)cc(OC)c1C2=O` , thank you.
-1

Look up the recorded call for `CCCCCCc1ccc(O)cc1O` in this test.
-1

Hello, I am checking results. What call was entered for `CC(=O)O[C@]1(C(C)=O)CC[C@H]2[C@@H]3C[C@H](C)C4=CC(=O)CC[C@]4(C)[C@H]3CC[C@@]21C` ?
-1
